Molecular target: P2X7 (Homo sapiens, UniProt Q99572)
Construct: endogenous in cells; host or cells: THP-1 human monocytic cell line
Sequence (Q99572 whole entry): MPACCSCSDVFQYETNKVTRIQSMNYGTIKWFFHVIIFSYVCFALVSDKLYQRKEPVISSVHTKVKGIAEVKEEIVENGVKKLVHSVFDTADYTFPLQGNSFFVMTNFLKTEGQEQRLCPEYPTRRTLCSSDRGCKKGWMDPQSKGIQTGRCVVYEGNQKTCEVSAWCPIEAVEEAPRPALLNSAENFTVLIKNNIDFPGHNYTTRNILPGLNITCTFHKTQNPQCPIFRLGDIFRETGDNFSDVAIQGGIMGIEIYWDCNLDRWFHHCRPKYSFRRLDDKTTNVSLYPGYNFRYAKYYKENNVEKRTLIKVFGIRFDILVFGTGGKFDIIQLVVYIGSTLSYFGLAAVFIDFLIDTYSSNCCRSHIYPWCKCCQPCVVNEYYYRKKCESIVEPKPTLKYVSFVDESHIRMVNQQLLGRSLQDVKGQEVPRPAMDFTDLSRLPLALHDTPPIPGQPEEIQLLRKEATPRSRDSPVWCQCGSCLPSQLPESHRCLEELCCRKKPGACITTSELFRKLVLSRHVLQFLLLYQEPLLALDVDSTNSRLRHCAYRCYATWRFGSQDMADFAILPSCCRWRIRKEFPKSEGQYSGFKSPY
Assay: THP-1 YoPro uptake assay (BzATP-stimulated Yo-Pro-1 uptake)
Type: cell-based
Conditions: Table F-10, THP-1 cells, read-out: mean pIC50 values for P2X7 antagonism (converted)
Observable: IC50 (nM)
Report only the number, with the unit nM understood.

Compound: O=C(NCC(c1cnc(C(F)(F)F)nc1)N1CCOCC1)c1c(Cl)ccc2nc(N3CCCC3)ccc12 (stereo not shown)
IC50, nM: 2.4

Compound: CS(=O)(=O)N[C@@H]1CCN(c2ccc3c(C(=O)NCC(c4cnc(C(F)(F)F)nc4)N4CCOCC4)c(Cl)ccc3n2)C1 (stereo partly shown)
IC50, nM: 17.8

Compound: O=C(NCC(c1cnc(C(F)(F)F)nc1)N1CCOCC1)c1c(Cl)ccc2nc(N3CCN(C4CC4)CC3)ccc12 (stereo not shown)
IC50, nM: 3.39

Compound: CN(C)[C@@H]1CCN(c2ccc3c(C(=O)NCC(c4cnc(C(F)(F)F)nc4)N4CCOCC4)c(Cl)ccc3n2)C1 (stereo partly shown)
IC50, nM: 8.71

(Q) Report IC50 for O=C(NCC(c1cnc(C(F)(F)F)nc1)N1CCOCC1)c1c(Cl)ccc2nc(N3CC4CNC4C3)ccc12 (stereo not shown) please.
(A) 2.57

(Q) Report IC50 for O=C(NCC(c1cnc(C(F)(F)F)nc1)N1CCC(F)(F)CC1)c1c(Cl)ccc2nc(N3CCOCC3)ccc12 (stereo not shown) please.
(A) 14.8

(Q) Report IC50 for O=C(NCC(c1cnc(C(F)(F)F)nc1)N1CCC(F)(F)CC1)c1c(Cl)ccc2nc(N3CC(O)(C(F)(F)F)C3)ccc12 (stereo not shown) please.
(A) 17.8

(Q) Report IC50 for O=C(NCC(c1cnc(C(F)(F)F)nc1)N1CCC(F)(F)CC1)c1c(Cl)ccc2nc(N3CCCOCC3)ccc12 (stereo not shown) please.
(A) 8.13

(Q) Report IC50 for O=C(NCC(c1cnc(C(F)(F)F)nc1)N1CCCCC1)c1c(Cl)ccc2nc(NCC(O)CO)ccc12 (stereo not shown) please.
(A) 2.34

(Q) Report IC50 for CC1CN(c2ccc3c(C(=O)NCC(c4cnc(C(F)(F)F)nc4)N4CCOCC4)c(Cl)ccc3n2)CC(C)N1 (stereo not shown) please.
(A) 31.6

(Q) Report IC50 for CN[C@@H]1CCN(c2ccc3c(C(=O)NCC(c4cnc(C(F)(F)F)nc4)N4CCOCC4)c(Cl)ccc3n2)C1 (stereo partly shown) please.
(A) 4.9

(Q) Report IC50 for CC(C)N1CCN(c2ccc3c(C(=O)NCC(c4cnc(C(F)(F)F)nc4)N4CCOCC4)c(Cl)ccc3n2)CC1 (stereo not shown) please.
(A) 5.01

(Q) Report IC50 for CCN(CC)c1ccc2c(C(=O)NCC(c3cnc(C(F)(F)F)nc3)N3CCOCC3)c(Cl)ccc2n1 (stereo not shown) please.
(A) 9.12

(Q) Report IC50 for CS(=O)(=O)N[C@H]1CCN(c2ccc3c(C(=O)NCC(c4cnc(C(F)(F)F)nc4)N4CCOCC4)c(Cl)ccc3n2)C1 (stereo partly shown) please.
(A) 14.8

(Q) Report IC50 for O=C(NCC(c1cnc(C(F)(F)F)nc1)N1CCC(F)(F)CC1)c1c(Cl)ccc2nc(N3CCC(n4cn[nH]c4=O)CC3)ccc12 (stereo not shown) please.
(A) 10.2

(Q) Report IC50 for O=C(NCC(c1cnc(C(F)(F)F)nc1)N1CCOCC1)c1c(Cl)ccc2nc(N3CCCNCC3)ccc12 (stereo not shown) please.
(A) 25.7

(Q) Report IC50 for O=C(NCC(c1cnc(C(F)(F)F)nc1)N1CCC(F)(F)CC1)c1c(Cl)ccc2nc(NCC3CC3)ccc12 (stereo not shown) please.
(A) 13.5

(Q) Report IC50 for O=C(NCC(c1cnc(C(F)(F)F)nc1)N1CCOCC1)c1c(Cl)ccc2nc(NCc3ccccc3)ccc12 (stereo not shown) please.
(A) 14.5
